assay: subacute toxicity in the mouse (one dose per day for 5 days); conditions: in vivo, iv

| smiles record | result units | LD50 |
| --- | --- | --- |
| COc1cccc2c1C(=O)c1c(O)c3c(c(O)c1C2=O)C[C@@](O)(C(C)=O)C[C@@H]3O[C@H]1C[C@H](N)[C@H](O)[C@H](C)O1 | mg/kg | 8.75 |

###

test: acute toxicity in the mouse; details: in vivo, sc

| smiles record | result units | LD50 |
| --- | --- | --- |
| COc1cccc2c1C(=O)c1c(O)c3c(c(O)c1C2=O)C[C@@](O)(C(C)=O)C[C@@H]3O[C@H]1C[C@H](N)[C@H](O)[C@H](C)O1 | mg/kg | 47 |

Taken from patent US3989598A.
